assay: Presence of at least one case with successful reintroduction. [column 'REINT' in source]; settings: human
Where a SMILES comes first, the peptide text is derived from it. Bridges are numbered along the chain shown (N, C = ends). [ ]: non-standard residue; d: D form. The star is where a group is joined. Threoninol(2S,3R) = C[C@@H](O)[C@H](CO)N*
ENDPOINT: Hepatotoxicity (successful reintroduction)

INSERT INTO measurements (molecule, result) VALUES
  ('Nc1ccc(C(=O)O)c(O)c1 [AMINOSALICYLIC ACID]', 'yes'),
  ('CCCC(C)C1(CC)C(=O)NC(=S)NC1=O (centres undefined) [THIOPENTAL]', 'yes'),
  ('Nc1cc(N2CCCCC2)nc(N)[n+]1[O-] [MINOXIDIL]', 'yes'),
  ('C[C@@H](O)[C@H](CO)NC(=O)[C@@H]1CSSC[C@H](NC(=O)[C@H](N)Cc2ccccc2)C(=O)N[C@@H](Cc2ccccc2)C(=O)N[C@H](Cc2c[nH]c3ccccc23)C(=O)N[C@@H](CCCCN)C(=O)N[C@@H]([C@@H](C)O)C(=O)N1 (H-[dF]CF[dW]KTC-{Threoninol(2S,3R)}; disulfide 2-7)', 'yes');

* * *

conditions: human
ENDPOINT: Hepatotoxicity (choleostasis)

INSERT INTO assay_data (compound, measured_number) VALUES
  ('CCC[N+]12[C@H](O)[C@@H](CC)[C@@H]3C[C@H]1[C@@H]1N(C)c4ccccc4[C@]14C[C@H]2C3[C@H]4O (stereo partly specified)', 14),
  ('CC(C)(Oc1ccc(Cl)cc1)C(=O)OCCOC(=O)c1cccnc1 [ETOFIBRATE]', 0),
  ('CCC1(CC)C(=O)NCC(C)C1=O (stereo unspecified)', 1),
  ('CN1C[C@H](C(=O)N[C@]2(C)O[C@@]3(O)[C@@H]4CCCN4C(=O)[C@H](Cc4ccccc4)N3C2=O)C=C2c3cccc4[nH]cc(c34)C[C@H]21', 0),
  ('CC1=C(CC(=O)O)c2cc(F)ccc2/C1=C\c1ccc([S+](C)[O-])cc1 (stereo unspecified)', 22),
  ('CC[C@@H](CO)NCCN[C@@H](CC)CO', 1),
  ('C/N=C(/Cc1ccc2ccccc2c1)NC', 0),
  ('CC1(C)O[C@@H]2[C@@H](CO[C@@]3(COS(N)(=O)=O)OC(C)(C)O[C@@H]23)O1 [TOPIRAMATE]', 0),
  ('CCOC(=O)C1=C(C)NC(C)=C(C(=O)OC)C1c1cccc(Cl)c1Cl (stereo unspecified)', 0),
  ('NCCCNc1ccc2c3c(nn2CCNCCO)-c2c(O)ccc(O)c2C(=O)c13', 0),
  ('Cc1cc(C(=O)NNCc2ccccc2)no1', 2),
  ('CC[C@H](C)[C@H]1NC(=O)[C@@H](NC(=O)[C@@H](CC(C)C)N(C)C(=O)[C@@H]2CCCN2C(=O)C(C)O)[C@@H](C)OC(=O)[C@H](Cc2ccc(OC)cc2)N(C)C(=O)[C@@H]2CCCN2C(=O)[C@H](CC(C)C)NC(=O)[C@@H](C)C(=O)[C@H](C(C)C)OC(=O)C[C@@H]1O (stereo partly specified)', 1),
  ('Cc1nc(NS(=O)(=O)c2ccc(N)cc2)oc1C', 0),
  ('C[C@H](CCC(=O)O)[C@H]1CC[C@H]2[C@@H]3[C@@H](O)C[C@@H]4C[C@H](O)CC[C@]4(C)[C@H]3CC[C@]12C', 0),
  ('Cc1ccc(-c2nc3ccc(C)cn3c2CC(=O)N(C)C)cc1', 0),
  ('O=C(CCCN1CCC(O)(c2ccc(Cl)cc2)CC1)c1ccc(F)cc1', 8);

* * *

conditions: human, serum
Where a SMILES comes first, the peptide text is derived from it. Bridges are numbered along the chain shown (N, C = ends). [ ]: non-standard residue; d: D form. The star is where a group is joined. NMePhe(4-NMe2) = CN[C@@H](Cc1ccc(N(C)C)cc1)C(=O)O; Pip(4-oxo) = O=C1CCN[C@H](C(=O)O)C1; Picolinoyl(3-OH) = O=C(c1ncccc1O)*; Phg = N[C@H](C(=O)O)c1ccccc1; dAbu = CC[C@@H](N)C(=O)O
Item-by-item account of Hepatotoxicity (moderate)
ENDPOINT: Hepatotoxicity (moderate)

INSERT INTO measurements (compound, endpoint, result) VALUES
  ('Nc1nc(F)nc2c1ncn2[C@@H]1O[C@H](CO)[C@@H](O)[C@@H]1O', 'Hepatotoxicity (moderate)', 5),
  ('CC(C)CN(C[C@@H](O)[C@H](Cc1ccccc1)NC(=O)O[C@H]1CCOC1)S(=O)(=O)c1ccc(N)cc1', 'Hepatotoxicity (moderate)', 0),
  ('CCc1c2c(nc3ccc(OC(=O)N4CCC(N5CCCCC5)CC4)cc13)-c1cc3c(c(=O)n1C2)COC(=O)[C@]3(O)CC', 'Hepatotoxicity (moderate)', 12),
  ('CO[C@@]1(NC(=O)Cc2cccs2)C(=O)N2C(C(=O)O)=C(COC(N)=O)CS[C@@H]21', 'Hepatotoxicity (moderate)', 18),
  ('CC/C=C(\C(=O)N[C@@H]1C(=O)N2C(C(=O)OCOC(=O)C(C)(C)C)=C(COC(N)=O)CS[C@H]12)c1csc(N)n1', 'Hepatotoxicity (moderate)', 53),
  ('COC(=O)C(c1ccccc1)C1CCCCN1 (stereo unspecified) [METHYLPHENIDATE]', 'Hepatotoxicity (moderate)', 1),
  ('C[C@@H]1O[C@@H]1P(=O)(O)O', 'Hepatotoxicity (moderate)', 8),
  ('O=C(NCN1CCOCC1)c1cnccn1 [MORINAMIDE]', 'Hepatotoxicity (moderate)', 2),
  ('Oc1ccc(Cl)cc1Cc1cc(Cl)ccc1O', 'Hepatotoxicity (moderate)', 0),
  ('CO/N=C(\C(=O)N[C@@H]1C(=O)N2C(C(=O)O)=C(CSc3nc(C)c(CC(=O)O)s3)CS[C@H]12)c1csc(N)n1', 'Hepatotoxicity (moderate)', 51),
  ('C[C@]1(O)CC[C@H]2[C@@H]3CCC4=CC(=O)CC[C@@H]4[C@H]3CC[C@@]21C', 'Hepatotoxicity (moderate)', 0),
  ('N[C@@H]1[C@H]2CN(c3nc4c(cc3F)c(=O)c(C(=O)O)cn4-c3ccc(F)cc3F)C[C@@H]12', 'Hepatotoxicity (moderate)', 4),
  ('CC(C)(Oc1ccc(Cl)cc1)C(=O)NC(=O)NCN1CCOCC1 [PLAFIBRIDE]', 'Hepatotoxicity (moderate)', 1),
  ('COc1ccc2nc(NC(=O)Nc3ccccc3)sc2c1', 'Hepatotoxicity (moderate)', 4),
  ('CC[C@H]1NC(=O)[C@@H](NC(=O)c2ncccc2O)[C@@H](C)OC(=O)[C@H](c2ccccc2)NC(=O)[C@@H]2CC(=O)CCN2C(=O)[C@H](Cc2ccc(N(C)C)cc2)N(C)C(=O)[C@@H]2CCCN2C1=O [PRISTINAMYCIN 1A] ({Picolinoyl(3-OH)}-T[dAbu]P[NMePhe(4-NMe2)][Pip(4-oxo)][Phg]; ester 1-C)', 'Hepatotoxicity (moderate)', 0),
  ('CO/N=C(\C(=O)N[C@@H]1C(=O)N2C(C(=O)O)=C(C)CS[C@H]12)c1csc(N)n1', 'Hepatotoxicity (moderate)', 30),
  ('CCN1CCN(C(=O)N[C@@H](C(=O)N[C@]2(OC)C(=O)N3C(C(=O)O)=C(CSc4nnnn4C)CS[C@@H]32)[C@H](C)O)C(=O)C1=O', 'Hepatotoxicity (moderate)', 2),
  ('O=c1[nH]c(=O)n([C@@H]2O[C@H](CO)[C@@H](O)[C@@H]2F)cc1I', 'Hepatotoxicity (moderate)', 0),
  ('O=C1CN=C(c2ccccc2Cl)c2cc([N+](=O)[O-])ccc2N1', 'Hepatotoxicity (moderate)', 0),
  ('Cc1c(O)c(=O)ccn1C', 'Hepatotoxicity (moderate)', 8),
  ('FC(F)OC(F)C(F)(F)F (stereo unspecified)', 'Hepatotoxicity (moderate)', 2),
  ('O=C(O)COCCN1CCN(C(c2ccccc2)c2ccc(Cl)cc2)CC1 (stereo unspecified)', 'Hepatotoxicity (moderate)', 1),
  ('O=C(Nc1ccc(Cl)cc1)NS(=O)(=O)c1ccc2c(c1)CCC2', 'Hepatotoxicity (moderate)', 9),
  ('CO/N=C(\C(=O)N[C@@H]1C(=O)N2C(C(=O)O)=C(CSc3nnnn3C)CS[C@H]12)c1csc(N)n1', 'Hepatotoxicity (moderate)', 11),
  ('CO/N=C(\C(=O)N[C@@H]1C(=O)N2C(C(=O)OC(C)OC(C)=O)=C(COC(N)=O)CS[C@H]12)c1ccco1 (stereo partly specified)', 'Hepatotoxicity (moderate)', 31),
  ('COc1cc(C)c(/C=C/C(C)=C/C=C/C(C)=C/C(=O)O)c(C)c1C', 'Hepatotoxicity (moderate)', 16),
  ('CC[C@H]1OC(=O)[C@H](C)[C@@H](O[C@H]2C[C@@](C)(OC)[C@@H](O)[C@H](C)O2)[C@H](C)[C@@H](O[C@@H]2O[C@H](C)C[C@H](N(C)C)[C@H]2O)[C@](C)(O)C[C@@H](C)C(=O)[C@H](C)[C@@H](O)[C@]1(C)O', 'Hepatotoxicity (moderate)', 19),
  ('CC(C)(Oc1ccc(Cl)cc1)C(=O)OCCOC(=O)c1cccnc1 [ETOFIBRATE]', 'Hepatotoxicity (moderate)', 1),
  ('NCC(=O)CCC(=O)O', 'Hepatotoxicity (moderate)', 7),
  ('CCN(CCO)CCCC(C)Nc1ccnc2cc(Cl)ccc12 (stereo unspecified) [HYDROXYCHLOROQUINE]', 'Hepatotoxicity (moderate)', 1),
  ('O=CN(O)CCCP(=O)(O)O', 'Hepatotoxicity (moderate)', 1);
